- Tgt: Fuc(a1-3)GlcNAc
- Method Summary: glycan array binding signal (z-score within array); higher = stronger binding
- Measurement Context: glycan notation: IUPAC condensed, linker removed
This excerpt belongs to a sample that is enriched for the strongest signals.
Listed here: items and their measured glycan array binding signal (z-score).
Measurement Label: glycan array binding signal (z-score)

INSERT INTO results (binder, measured) VALUES
  ('CFEM-PPm (Pichia pastoris), F2QPV1 (protein) AVATPPACLLACAAEVVKESSDCDALNNIQCICENEGSAIHACLESTCPDGLSSTALQSFEDVCE', -0.301),
  ('TbCVNHOb (Tuber borchii) (protein) MSFYASSEDVRTIEEGGRTWLVGRARRADGSWQDIKLDLDNIIGNRDGHLTWGEQNFTQSASDIRFNFEGGSNVPVLRAKLRNAAGGEQESDLNLGERLTNNNGDLVFN', 0.012),
  ('PpFlo2 (Pichia pastoris) (protein) MGSSHHHHHHSSGLVPRGSHMDDSGNGDNSDTAYGCDITTNAVDGFDATIYQYNANDLRLIRDPTFMSTGYLGRNVLNKISGVTVPGFNIWNPSSRTATVYGVKNVNYYNMVLELKGYFKADVSGDYKLTLSHIDDSSMLFFGKETAFKCCDAGSIPLNEAPTDYSLFTIKPSNQVNSEVISATQYLEAGKYYPVRIVFVNALERARFDFKLTIPSGAVLDDFQNYIYQFGDLDENSCHE', -0.292),
  ('Mannose Binding Protein (Lactobacillus plantarum) (protein) AERSEAALTHVDKDNFLKYFSLNGSATYDAKTGIVTITPNQNNQVGNFSLTSKIDMNKSFTLTGQVNLGSNPNGADGIGFAFHSGNTTDVGNAGGNLGIGGLQDAIGFKLDTWFNSYQAPSSDKNGSEISSTNSNGFGWNGDSANAPYGTFVKTSNQEISTANGSKVQRWWAQDTGESQALSKADIDGNFHDFVVNYDGATRTLTVSYTQASGKVLTWKTTVASSYQAMAMVVSASTGAAKNLQQFKLTSFDFQEAATVNVKYVDTTGHQLAQG', -0.141);

Numbers sourced from the supplement of paper PMC8728848.
